measured_on: WRN [UniPro: Q14191 (WRN_HUMAN), N500-C946] (Homo sapiens (Human))
assay_notes: WRN ATPase assay (ADP-Glo)
Type: biochemical
assay_conditions: WRN enzymatic activity assay
readout_name: IC50

See these solved cases before continuing.
{"columns": ["smi", "IC50"],
 "data": [
  ["CCC(=O)N(C(=O)Cn1c(CC)c(N2CCN(S(N)(=O)=O)CC2)c(=O)n2nc(C3=CCOCC3)nc12)c1ccc(C(F)(F)F)cc1Cl", "100 to 1000 nM"],
  ["CCc1c(N2CCN(C(=O)NS(=O)(=O)CC)CC2)c(=O)n2nc(C3=CCOCC3)nc2n1CC(=O)Nc1ccc(C(F)(F)F)cc1Cl", "< 100 nM"],
  ["CCc1c(N2CCN(C(=O)CNC(=O)c3ccnn3C)CC2)c(=O)n2nc(C3=CCOCC3)nc2n1CC(=O)Nc1ccc(C(F)(F)F)cc1Cl", "< 100 nM"]
]}

Below are 4 molecules. Give each one its IC50.
1. CCc1c(N2CCN(C(=O)CNC(=O)c3cnc(C)s3)CC2)c(=O)n2nc(C3=CCOCC3)nc2n1CC(=O)Nc1ccc(C(F)(F)F)cc1Cl
2. CCc1c(N2CCN(C(=O)CNC(=O)c3ccccc3F)CC2)c(=O)n2nc(C3=CCOCC3)nc2n1CC(=O)Nc1cc(F)c(C(F)(F)F)cc1C
3. CCc1c(N2CCN(C(=O)CNc3ncnc4[nH]ccc34)CC2)c(=O)n2nc(C3=CCOCC3)nc2n1CC(=O)Nc1ccc(C(F)(F)F)cc1Cl
4. CCc1c(N2CCN(C(=O)c3cnc(C(F)(F)F)[nH]3)CC2)c(=O)n2nc(C3=CCOCC3)nc2n1CC(=O)Nc1ccc(Cl)cc1C(F)(F)F

1: 100 to 1000 nM; 2: 100 to 1000 nM; 3: > 1000 nM; 4: 100 to 1000 nM

----------
measured_on: WRN [UniPro: Q14191 (WRN_HUMAN), N500-C946] (Homo sapiens (Human), UniProt Q14191)
Sequence (Q14191 500-946): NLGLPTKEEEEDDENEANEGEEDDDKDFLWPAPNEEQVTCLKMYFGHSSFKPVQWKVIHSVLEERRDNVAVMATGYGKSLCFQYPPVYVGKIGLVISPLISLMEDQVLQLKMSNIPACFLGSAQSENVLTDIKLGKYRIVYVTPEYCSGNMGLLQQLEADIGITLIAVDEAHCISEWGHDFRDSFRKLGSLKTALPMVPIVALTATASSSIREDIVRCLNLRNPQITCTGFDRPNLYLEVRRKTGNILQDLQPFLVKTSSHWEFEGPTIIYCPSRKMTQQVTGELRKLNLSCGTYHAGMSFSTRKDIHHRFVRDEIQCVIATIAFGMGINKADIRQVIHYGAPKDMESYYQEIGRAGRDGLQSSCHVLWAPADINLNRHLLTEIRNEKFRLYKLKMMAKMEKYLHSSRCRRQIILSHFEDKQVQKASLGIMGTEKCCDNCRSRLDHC
assay_notes: WRN unwinding assay (FORKF DNA, fluorescence)
Format: biochemical
assay_conditions: Table 14
pIC50: −log10 of the molar value.
readout_name: pIC50

See these solved cases before continuing.
{"columns": ["smi", "measured_on", "pIC50"],
 "data": [
  ["CCc1c(N2CCN(C(=O)CNC(=O)c3cccc(F)c3F)CC2)c(=O)n2nc(C3=CCOCC3)nc2n1CC(=O)Nc1ccc(C(F)(F)F)cc1Cl", "WRN [UniPro: Q14191 (WRN_HUMAN), N500-C946] (Homo sapiens (Human), UniProt Q14191)", "> 7.00"],
  ["CCc1c(N2CCN(C(=O)c3[nH]c4ccncc4c3F)CC2)c(=O)n2nc(C3=CCOCC3)nc2n1CC(=O)Nc1ccc(C(F)(F)F)cc1Cl", "WRN [UniPro: Q14191 (WRN_HUMAN), N500-C946] (Homo sapiens (Human), UniProt Q14191)", "6.00 to 7.00"],
  ["CCc1c(N2CCN(C(=O)CNC(=O)c3ccccc3F)CC2)c(=O)n2nc(C3=CCOCC3)nc2n1CC(=O)Nc1ccc(C(F)(F)F)nc1Cl", "WRN [UniPro: Q14191 (WRN_HUMAN), N500-C946] (Homo sapiens (Human), UniProt Q14191)", "> 7.00"]
]}

Below are 2 molecules. Give each one its pIC50.
1. CCc1c(N2CCN(C(=O)CNC(=O)c3ccccc3)CC2)c(=O)n2nc(N3CCOCC3)nc2n1CC(=O)Nc1ccc(C(F)(F)F)cc1Cl
2. CCc1c(N2CCN(C(=O)c3nnc(C(F)(F)F)[nH]3)CC2)c(=O)n2nc(C3=CCOCC3)nc2n1CC(=O)Nc1ccc(C(F)(F)F)cc1F

> 7.00
> 7.00

----------
measured_on: WRN [UniPro: Q14191 (WRN_HUMAN), N500-C946] (Homo sapiens (Human), UniProt Q14191)
assay_notes: WRN unwinding assay (FORKF DNA, fluorescence)
Type: biochemical
assay_conditions: Table 14
Experimental: WRN unwinding assay was initiated to evaluate potential inhibitory effect of compounds for WEN helicase activity. WRN [UniPro: Q14191 (WRN_HUMAN), N500-C946] was expressed and purified in insect system and stored at −80° C. in aliquots. […] Average fluorescence signal of high control (Wells with 1% DMSO) was calculated as High Control (HC). Average fluorescence signal of low control (Wells with no WRN protein) was calculated as Low control (LC). […]
readout_name: IC50

{"columns": ["smi", "IC50"],
 "data": [
  ["CCc1c(N2CCN(C(=O)CNC(=O)c3ccccc3F)CC2)c(=O)n2nc(N3CCOCC3)cc2n1CC(=O)Nc1ccc(C(F)(F)F)cc1Cl", "100 to 1000 nM"],
  ["CCc1c(N2CCN(C(=O)CNC(=O)c3cccc(F)c3N)CC2)c(=O)n2nc(N3CCOCC3)nc2n1CC(=O)Nc1ccc(C(F)(F)F)cc1F", "< 100 nM"],
  ["CCc1c(N2CCN(C(=O)CNC(=O)c3nccs3)CC2)c(=O)n2nc(C3=CCOCC3)nc2n1CC(=O)Nc1ccc(C(F)(F)F)cc1Cl", "< 100 nM"],
  ["CCc1c(N2CCN(C(=O)CNC(=O)c3ccc(F)s3)CC2)c(=O)n2nc(C3=CCOCC3)nc2n1CC(=O)Nc1ccc(C(F)(F)F)cc1Cl", "< 100 nM"],
  ["CCc1c(N2CCN(C(=O)c3cnc4[nH]ccc4c3O)CC2)c(=O)n2nc(C3=CCOCC3)nc2n1CC(=O)Nc1ccc(C(F)(F)F)cc1Cl", "< 100 nM"]
]}

Here is another compound to look at.
Report IC50 for `CCc1c(N2CCN(C(=O)NS(=O)(=O)C3CC3)CC2)c(=O)n2nc(C3=CCOCC3)nc2n1CC(=O)Nc1ccc(C(F)(F)F)cc1Cl`
100 to 1000 nM

----------
Give measured IC50 for each item. Keep answers brief.
measured_on: UniProt:Q14191
assay_notes: WRN unwinding assay (FORKF DNA, fluorescence)
Format: biochemical
assay_conditions: Table 14

{"columns": ["smi", "readout_name", "value_measured"],
 "data": [
  ["CCc1c(N2CCN(C(=O)CNC(=O)c3c[nH][nH]c3=O)CC2)c(=O)n2nc(C3=CCOCC3)nc2n1CC(=O)Nc1ccc(C(F)(F)F)cc1Cl", "IC50", "< 100 nM"]
]}

Below are 5 molecules. Give each one its IC50.
1. CCc1c(N2CCN(C(=O)CNC(=O)c3nc(C)cs3)CC2)c(=O)n2nc(C3=CCOCC3)nc2n1CC(=O)Nc1ccc(C(F)(F)F)cc1Cl
2. CCc1c(N2CCN(C(=O)CNC(=O)c3nc(NC)ccc3F)CC2)c(=O)n2nc(C3=CCOCC3)nc2n1CC(=O)Nc1ccc(C(F)(F)F)cc1Cl
3. CCc1c(N2CCN(C(=O)c3cnc4sc(Br)cc4c3O)CC2)c(=O)n2nc(C3=CCOCC3)nc2n1CC(=O)Nc1ccc(C(F)(F)F)cc1F
4. CCc1c(N2CCN(C(=O)CNC(=O)N(C)C)CC2)c(=O)n2nc(C3=CCOCC3)nc2n1CC(=O)Nc1ccc(C(F)(F)F)cc1Cl
5. CCc1c(N2CCN(C(=O)CNC(=O)c3ccnn3C)CC2)c(=O)n2nc(C3=CCOCC3)nc2n1CC(=O)Nc1ccc(C(F)(F)F)cc1Cl

1. < 100 nM
2. < 100 nM
3. < 100 nM
4. 100 to 1000 nM
5. < 100 nM

----------
Give measured IC50 for each item. Keep answers brief.
measured_on: WRN [UniPro: Q14191 (WRN_HUMAN), N500-C946] (Homo sapiens (Human))
assay_notes: WRN ATPase assay (ADP-Glo)
Format: biochemical
assay_conditions: WRN enzymatic activity assay

See these solved cases before continuing.
{"columns": ["compound", "measured_on", "IC50"],
 "data": [
  ["CCc1c(N2CCN(C(=O)CNC(=O)COC)CC2)c(=O)n2nc(C3=CCOCC3)nc2n1CC(=O)Nc1ccc(C(F)(F)F)cc1Cl [Example 174]", "WRN [UniPro: Q14191 (WRN_HUMAN), N500-C946] (Homo sapiens (Human))", "< 100 nM"],
  ["CCc1c(N2CCN(C(=O)CNC(=O)c3cnc4c(ccn4C)c3O)CC2)c(=O)n2nc(C3=CCOCC3)nc2n1CC(=O)Nc1ccc(C(F)(F)F)cc1Cl [Example 120]", "WRN [UniPro: Q14191 (WRN_HUMAN), N500-C946] (Homo sapiens (Human))", "100 to 1000 nM"]
]}

Here is another compound to look at.
Report IC50 under test system WRN [UniPro: Q14191 (WRN_HUMAN), N500-C946] (Homo sapiens (Human)) for CCc1c(N2CCN(C(=O)C(=O)Nc3ccn[nH]3)CC2)c(=O)n2nc(C3=CCOCC3)nc2n1CC(=O)Nc1ccc(C(F)(F)F)cc1Cl [Example 333] .
< 100 nM
